In this section we review reported pKi values for a set of compounds.
tested on: FKBP52 (Homo sapiens, UniProt Q02790)
Sequence (Q02790 50-138 limits assumed): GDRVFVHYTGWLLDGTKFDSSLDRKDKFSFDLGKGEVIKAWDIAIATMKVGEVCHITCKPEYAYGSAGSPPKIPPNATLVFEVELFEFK
pKi: −log10 of the molar value.
measure: pKi

>>> result("COCC1CN(Cc2cnnn2-c2ccccc2)C(=O)C2CCCC1N2S(=O)(=O)c1cccc(F)c1 (stereo in doubt) [Compound N29]")
"6.30 to 7.00"
>>> result("C=CC1CN(Cc2ccccn2)C(=O)C2CCCC1N2S(=O)(=O)c1cccnc1 (stereo in doubt) [Compound K26]")
"6.30 to 7.00"
>>> result("O=C1[C@@H]2CCC[C@H]([C@@H](CF)CN1Cc1ccccn1)N2S(=O)(=O)c1cc(Cl)cc(Cl)c1 [Compound M4]")
"≥ 7.00"
>>> result("C=CC1CN(Cc2ccccn2)C(=O)C2CCCC1N2S(=O)(=O)c1ccc(NC(C)=O)c(Br)c1 (stereo in doubt) [Compound K20]")
"6.30 to 7.00"
>>> result("COC[C@H]1CN(Cc2cnn[nH]2)C(=O)[C@@H]2CCC[C@H]1N2S(=O)(=O)c1ccc(-c2ccccc2)nc1 [Compound N26]")
"≥ 7.00"
>>> result("C#CCN1C[C@H](COC)[C@H]2CCC[C@@H](C1=O)N2S(=O)(=O)c1nc2ccccc2[nH]1 [Compound N16]")
"6.30 to 7.00"
>>> result("COCCN1C[C@H](CCO)[C@H]2CCC[C@@H](C1=O)N2S(=O)(=O)c1cc(Cl)cc(Cl)c1 [Compound B8]")
"6.30 to 7.00"
